Target: IDH1-R132H recombinant protein (Homo sapiens (Human), UniProt O75874, R132H)
Sequence (O75874 whole entry R132H): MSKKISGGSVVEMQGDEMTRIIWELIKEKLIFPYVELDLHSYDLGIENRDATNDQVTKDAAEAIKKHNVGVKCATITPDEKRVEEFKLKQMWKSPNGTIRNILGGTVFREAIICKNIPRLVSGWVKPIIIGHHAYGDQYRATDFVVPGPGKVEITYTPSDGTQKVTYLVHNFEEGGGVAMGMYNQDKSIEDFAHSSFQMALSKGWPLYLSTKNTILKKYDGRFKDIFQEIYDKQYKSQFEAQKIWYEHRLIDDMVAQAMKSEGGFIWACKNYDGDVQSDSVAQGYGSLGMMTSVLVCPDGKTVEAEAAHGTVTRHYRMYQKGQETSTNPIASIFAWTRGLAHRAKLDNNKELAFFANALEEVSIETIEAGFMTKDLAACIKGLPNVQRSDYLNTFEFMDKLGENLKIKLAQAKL
Assay: IDH1-R132H enzymatic assay (inhibition of NADPH consumption, diaphorase/resazurin readout)
Settings: read-out: Enzyme IDH1 R132H IC50 (Range)
pIC50: −log10 of the molar value.
readout: pIC50

Some solved cases for reference:
>>> experimental_result("C[C@H](Nc1nccc(-c2ccnn2C)n1)c1cc2cc(Cl)ccc2[nH]c1=O")
"6.00 to 7.00"
>>> experimental_result("COc1ncccc1-c1ccnc(N[C@@H](C)c2cc3cc(Cl)ccc3[nH]c2=O)n1")
"5.00 to 6.00"
>>> experimental_result("C[C@H](Nc1nccc(-n2nnnc2C2CC2)n1)c1cc2cc(Cl)cnc2[nH]c1=O")
"6.00 to 7.00"
>>> experimental_result("C[C@H](Nc1nccc(-c2ccncc2)n1)c1cc2cc(Cl)ccc2[nH]c1=O")
"6.00 to 7.00"

# value of pIC50, IDH1-R132H recombinant protein (Homo sapiens (Human), UniProt O75874, R132H), item CC(=O)N(c1ccnc(N[C@@H](C)c2cc3cc(Cl)ccc3[nH]c2=O)n1)C(C)(C)C = 5.00 to 6.00

# value of pIC50, IDH1-R132H recombinant protein (Homo sapiens (Human), UniProt O75874, R132H), item CC(C)(Nc1nccc(N2CCOC2=O)n1)c1cc2cc(Cl)ccc2[nH]c1=O = 6.00 to 7.00

# value of pIC50, IDH1-R132H recombinant protein (Homo sapiens (Human), UniProt O75874, R132H), item C[C@H](Nc1nccc(NC2CCOC2)n1)c1cc2cc(Cl)ccc2[nH]c1=O (stereo partly shown) = 5.00 to 6.00

# value of pIC50, IDH1-R132H recombinant protein (Homo sapiens (Human), UniProt O75874, R132H), item COc1cc(OC)nc(NCc2cc3cc(Cl)ccc3[nH]c2=O)n1 = 5.00 to 6.00

# value of pIC50, IDH1-R132H recombinant protein (Homo sapiens (Human), UniProt O75874, R132H), item C[C@H](Nc1nccc(N2CCNC2=O)n1)c1cc2cc(Cl)ccc2[nH]c1=O = > 7.00

# value of pIC50, IDH1-R132H recombinant protein (Homo sapiens (Human), UniProt O75874, R132H), item C[C@H](Nc1nccc(N(CCC2CCOCC2)S(C)(=O)=O)n1)c1cc2cc(Cl)ccc2[nH]c1=O = 6.00 to 7.00

# value of pIC50, IDH1-R132H recombinant protein (Homo sapiens (Human), UniProt O75874, R132H), item CC(C)Cn1cncc1-c1ccnc(N[C@@H](C)c2cc3cc(Cl)ccc3[nH]c2=O)n1 = 6.00 to 7.00

# value of pIC50, IDH1-R132H recombinant protein (Homo sapiens (Human), UniProt O75874, R132H), item CC(C)CS(=O)(=O)N(C)c1ccnc(N[C@@H](C)c2cc3cc(Cl)ccc3[nH]c2=O)n1 = 6.00 to 7.00

# value of pIC50, IDH1-R132H recombinant protein (Homo sapiens (Human), UniProt O75874, R132H), item C[C@H](Nc1nccc(CS(C)(=O)=O)n1)c1cc2cc(Cl)ccc2[nH]c1=O = 6.00 to 7.00

# value of pIC50, IDH1-R132H recombinant protein (Homo sapiens (Human), UniProt O75874, R132H), item C[C@H](Nc1nccc(CC(N)=O)n1)c1cc2cc(Cl)ccc2[nH]c1=O = 6.00 to 7.00

# value of pIC50, IDH1-R132H recombinant protein (Homo sapiens (Human), UniProt O75874, R132H), item C[C@@H](Nc1nccc(N2CCCOC2=O)n1)c1cc2cc(Cl)ccc2[nH]c1=O = < 5.00

# value of pIC50, IDH1-R132H recombinant protein (Homo sapiens (Human), UniProt O75874, R132H), item CC(C)CSc1ccnc(N[C@@H](C)c2cc3cc(Cl)ccc3[nH]c2=O)n1 = 5.00 to 6.00
